Test system: L1210 leukemia ip in BDF1 mice, survival T/C
Test: NCI In Vivo Anticancer Drug Screen. Data for tumor model L1210 Leukemia (intraperitoneal) in B6D2F1 (BDF1) mice
Settings: endpoint: mean survival time; dose: 150.0 mg/kg/injection; schedule: Q01DX001 (ip); vehicle: saline; higher = longer survival
Inconclusive results and toxic doses are left out.
measuredAttribute: T/C

[
  {
    "compound": "CCOC(=O)c1cc(C(=O)OCC)c(=O)oc1OCC",
    "readoutValue": "97 % of control"
  },
  {
    "compound": "C=CCCC1(Cc2ccccc2)C(=O)NC(=O)NC1=O",
    "readoutValue": "97 % of control"
  },
  {
    "compound": "CCOC(=O)c1cccc2ccc[n+](C)c12",
    "readoutValue": "97 % of control"
  },
  {
    "compound": "N#C/C(=C/c1cc([N+](=O)[O-])c(O)c([N+](=O)[O-])c1)C(N)=O",
    "readoutValue": "98 % of control"
  },
  {
    "compound": "O=CN/N=C/c1ccc(Cl)cc1Cl",
    "readoutValue": "104 % of control"
  },
  {
    "compound": "OC(c1nc2ccccc2[nH]1)C(O)c1nc2ccccc2[nH]1 (stereo not drawn)",
    "readoutValue": "109 % of control"
  },
  {
    "compound": "COc1ccc2c(c1)-c1c(O)c(OC)cc3c1C(C2)N(C)CC3 (stereo not drawn)",
    "readoutValue": "98 % of control"
  },
  {
    "compound": "COc1ccc(-c2c(CO)cc(OC)c(OC)c2OC)c(CO)c1",
    "readoutValue": "99 % of control"
  },
  {
    "compound": "CC/C=C/C1(C(C)C)C(=O)NC(=O)NC1=O (tested in a mixture with another compound)",
    "readoutValue": "94 % of control"
  },
  {
    "compound": "CCC1N=C(N)N=C(N)N1c1ccc(Cl)cc1 (stereo not drawn)",
    "readoutValue": "98 % of control"
  },
  {
    "compound": "[CH3][Sb]1([CH3])([CH3])[O]S(=O)(=O)[O]1",
    "readoutValue": "102 % of control"
  },
  {
    "compound": "Cc1scc[n+]1C",
    "readoutValue": "102 % of control"
  },
  {
    "compound": "CN1CCC2CCC(C1)N2C (stereo not drawn)",
    "readoutValue": "100 % of control"
  }
]

* * *

System: L1210 leukemia ip in BDF1 mice, survival T/C
Assay: NCI In Vivo Anticancer Drug Screen. Data for tumor model L1210 Leukemia (intraperitoneal) in B6D2F1 (BDF1) mice
Settings: endpoint: mean survival time; dose: 400.0 mg/kg/injection; schedule: Q01DX001 (ip); vehicle: carboxymethylcellulose (CMC); higher = longer survival
Inconclusive results and toxic doses are left out.
measuredAttribute: T/C

[
  {
    "molecule": "c1cc2c(c3c1CCCC3)CCC1CCCCC21 (stereo not drawn)",
    "measuredAttribute": "T/C",
    "readoutValue": "97 % of control"
  },
  {
    "molecule": "CCOc1ccc(Cl)cc1C1N(Cc2ccccc2OC)CCCN1Cc1ccccc1OC",
    "measuredAttribute": "T/C",
    "readoutValue": "91 % of control"
  },
  {
    "molecule": "Nc1cc2c(cc1Br)-c1ccccc1/C2=N\\O",
    "measuredAttribute": "T/C",
    "readoutValue": "100 % of control"
  },
  {
    "molecule": "NC(=O)C(C(N)=O)C1CCCCc2ccccc21 (stereo not drawn)",
    "measuredAttribute": "T/C",
    "readoutValue": "88 % of control"
  },
  {
    "molecule": "COc1ccc(NP2(=O)OCC(C)(N)CO2)cc1 (stereo not drawn)",
    "measuredAttribute": "T/C",
    "readoutValue": "91 % of control"
  },
  {
    "molecule": "Nn1cnnc1N/N=C/c1ccccc1Cl",
    "measuredAttribute": "T/C",
    "readoutValue": "90 % of control"
  },
  {
    "molecule": "CS(=O)(=O)Oc1c(Br)cc(Br)c2cccnc12",
    "measuredAttribute": "T/C",
    "readoutValue": "98 % of control"
  },
  {
    "molecule": "COc1ccc(C2C(=O)NN=C2C)cc1 (stereo not drawn)",
    "measuredAttribute": "T/C",
    "readoutValue": "102 % of control"
  },
  {
    "molecule": "O/N=C1\\c2ccccc2-c2cccc(I)c21",
    "measuredAttribute": "T/C",
    "readoutValue": "94 % of control"
  },
  {
    "molecule": "CCCCCn1cnc2c(=S)nc[nH]c21",
    "measuredAttribute": "T/C",
    "readoutValue": "90 % of control"
  },
  {
    "molecule": "CCCN(CCC)C(=O)/C(=C\\c1ccccc1)NC(=O)c1ccccc1",
    "measuredAttribute": "T/C",
    "readoutValue": "98 % of control"
  },
  {
    "molecule": "C/C(=C/C=C(/C)C(=O)O)C(=O)O",
    "measuredAttribute": "T/C",
    "readoutValue": "98 % of control"
  },
  {
    "molecule": "COc1cc(C2c3c(cc(OC)c(O)c3OC)C=C(C(=O)O)C2CO)cc(OC)c1O (stereo not drawn)",
    "measuredAttribute": "T/C",
    "readoutValue": "91 % of control"
  }
]
